Target: Adenosine receptor A1 (Bos taurus)
Sequence (P28190 whole entry): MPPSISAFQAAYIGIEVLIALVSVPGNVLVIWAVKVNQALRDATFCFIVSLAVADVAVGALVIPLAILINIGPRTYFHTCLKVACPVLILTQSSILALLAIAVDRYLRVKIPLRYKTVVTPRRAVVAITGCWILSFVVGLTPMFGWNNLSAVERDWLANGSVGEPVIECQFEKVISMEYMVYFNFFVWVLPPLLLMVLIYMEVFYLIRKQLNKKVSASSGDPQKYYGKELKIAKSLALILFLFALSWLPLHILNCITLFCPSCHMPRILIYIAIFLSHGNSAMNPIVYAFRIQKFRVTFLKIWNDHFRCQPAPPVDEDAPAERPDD
Assay: Binding affinity to Adenosine A1 receptor in bovine cortical membranes by [3H]N6-cyclohexyl adenosine displacement.
Type: cell membranes
pKi: −log10 of the molar value.
Decide by pKi: equal to or exceeding 6 means met, less means not met.

Known results for compounds:
1) CCOCCNc1c(C(=O)OCC)cnc2c1cnn2CC(Cl)COc1ccccc1 (stereo unspecified); not met
2) CCOC(=O)c1cnc2c(cnn2CC(Cl)COc2ccccc2)c1NC1CCCCC1 (stereo unspecified); not met

Lab note: next compound to report on.
[ask] Determine whether measured pKi meets or exceeds 6 for CCOC(=O)c1cnc2c(cnn2CC(Cl)COc2ccccc2)c1NCCc1ccccc1 (stereo unspecified)
[reply] met

====

Tested on: Adenosine receptor A2a (Bos taurus)
Assay: Percent inhibition of specific [3H]-CGS-21,680 binding to adenosine A2A receptors in bovine striatal membranes at 10 uM concentration
Documented inhibition across a set of molecules
Just the number please, in %, no unit attached.

These recorded examples may help you get a feel for the data.
1. CCCNc1c(C(=O)OCC)cnc2c1cnn2/C=C/c1ccccc1; 0
2. CCCCNc1c(C(=O)OCC)cnc2c1cnn2/C=C/c1ccccc1; 0
3. CCOC(=O)c1cnc2c(cnn2/C=C/c2ccccc2)c1NCc1ccccc1; 2
4. CCOC(=O)c1cnc2c(cnn2CC(Cl)COc2ccccc2)c1N1CCOCC1 (stereo not given); 0
5. CCOC(=O)c1cnc2c(cnn2CC(Cl)COc2ccccc2)c1NCc1ccccc1 (stereo not given); 12
6. CCOC(=O)c1cnc2c(cnn2CC(Cl)c2ccccc2)c1NCc1ccccc1 (stereo not given); 0
7. CCOC(=O)c1cnc2c(cnn2CC(Cl)COc2ccccc2)c1NC1CCCCC1 (stereo not given); 1
8. CCOC(=O)c1cnc2c(cnn2/C=C/c2ccccc2)c1N1CCCC1; 0
9. CCOC(=O)c1cnc2c(cnn2/C=C/c2ccccc2)c1N1CCOCC1; 0
10. CCOC(=O)c1cnc2c(cnn2/C=C/c2ccccc2)c1NC1CC1; 0

[ask] Report value only: inhibition, Adenosine receptor A2a (Bos taurus), CCOC(=O)c1cnc2c(cnn2CC(Cl)COc2ccccc2)c1NC1CC1 (stereo not given)
[reply] 34

[ask] Report value only: inhibition, Adenosine receptor A2a (Bos taurus), CCOC(=O)c1cnc2c(cnn2/C=C/c2ccccc2)c1NC1CCCCC1
[reply] 0

[ask] Report value only: inhibition, Adenosine receptor A2a (Bos taurus), CCOC(=O)c1cnc2c(cnn2CC(Cl)c2ccccc2)c1N1CCOCC1 (stereo not given)
[reply] 0

[ask] Report value only: inhibition, Adenosine receptor A2a (Bos taurus), CCCCNc1c(C(=O)OCC)cnc2c1cnn2CC(Cl)COc1ccccc1 (stereo not given)
[reply] 23

[ask] Report value only: inhibition, Adenosine receptor A2a (Bos taurus), CCOC(=O)c1cnc2c(cnn2/C=C/c2ccccc2)c1NCCc1ccccc1
[reply] 2

[ask] Report value only: inhibition, Adenosine receptor A2a (Bos taurus), CCOC(=O)c1cnc2c(cnn2CC(Cl)c2ccccc2)c1NC1CCCCC1 (stereo not given)
[reply] 0

====

Test: Compound was evaluated for the inhibition of Adenylate cyclase activity
Type: functional
Documented IC50 across a set of compounds
Remember to put the unit after the number in your answer.

1) CCOC(=O)c1cnc2c(cnn2CC(Cl)c2ccccc2)c1N1CCCC1 (configuration not stated); 154 nM

Consider the additional compound presented here.
[ask] Given the compound CCOC(=O)c1cnc2c(cnn2CC(Cl)c2ccccc2)c1NCCc1ccccc1 (configuration not stated) , write its reported IC50.
[reply] 52.2 nM
